Provenance of the data: ChEMBL document CHEMBL3885861

# Species: Rattus norvegicus
# Protocol details: Open TG-GATES - Regimen: Single
# Assay type: toxicity, organism-based, Sprague-Dawley
# Parameters: regimen Single, gender Male, age 6 weeks
# Assay context: in vivo, po, 0 mg/kg, 24 h, tissue Plasma, route gavage, dose level Control
Listed molecules paired with reported TP
Reply with just the number (in g/dL).

Completed entries (count: 6):
Molecule	Reported measurement
CC(=O)Oc1ccccc1C(=O)O	5.6
NC(=O)N1c2ccccc2C=Cc2ccccc21 [CARBAMAZEPINE]	5.6
CN(C)CCC=C1c2ccccc2CCc2ccccc21	5.6
Cn1c(=O)c2[nH]cnc2n(C)c1=O.O	5.5
Clc1ccccc1CN1CCc2sccc2C1	5.5
CSc1ccc2c(c1)N(CCC1CCCCN1C)c1ccccc1S2 (stereo not drawn)	5.7

Q: Return TP (reported value) for this molecule: O=C(O)c1cn(C2CC2)c2cc(N3CCNCC3)c(F)cc2c1=O
Ans: 5.7

Q: Return TP (reported value) for this molecule: CCc1cc(C(N)=S)ccn1 [ETHIONAMIDE]
Ans: 5.5

Q: Return TP (reported value) for this molecule: O=C(O)c1cc(/N=N/c2ccc(S(=O)(=O)Nc3ccccn3)cc2)ccc1O
Ans: 5.6
